- System: SW-620
- ASSAY_NOTES: NCI tumour cell line growth inhibition, 48 h
Calls of active or inactive are those of the source. Cut-off read from the data, not from the text of the source: active = GI50 up to about 1.1 µM and inactive = higher.
Possible outcomes: active, inactive

[
  {
    "MOLECULE": "Cc1cc(=O)cc2sc3c(C)cccc3nc1-2",
    "LABEL_VALUE": "inactive"
  },
  {
    "MOLECULE": "C#CC(C)(C)Oc1cc(OC)c2c(=O)c3ccccc3n(C)c2c1",
    "LABEL_VALUE": "inactive"
  },
  {
    "MOLECULE": "NNc1nc2ccccc2s1",
    "LABEL_VALUE": "inactive"
  },
  {
    "MOLECULE": "CCCCCCC(=O)C/C(=N/NC(N)=S)C(=O)NC1C2CC3CC(C2)CC1C3 (stereo unspecified)",
    "LABEL_VALUE": "inactive"
  },
  {
    "MOLECULE": "O=C1c2ccccc2C(=O)c2c1ccc1c3ccccc3n(-c3ccccc3)c21",
    "LABEL_VALUE": "inactive"
  },
  {
    "MOLECULE": "CCCCSC(=CC(=O)c1cccc(C(=O)C=C(SCCCC)SCCCC)n1)SCCCC",
    "LABEL_VALUE": "inactive"
  },
  {
    "MOLECULE": "COc1cccc2c1C1(O)C2CCCC12OCCCO2 (stereo unspecified)",
    "LABEL_VALUE": "inactive"
  },
  {
    "MOLECULE": "CC(=O)OC(C)c1cc2c(s1)C(=O)c1scc(C(C)OC(C)=O)c1C2=O (stereo unspecified)",
    "LABEL_VALUE": "active"
  },
  {
    "MOLECULE": "O=C(O)CCc1nc(-c2ccccc2-n2cccc2)no1",
    "LABEL_VALUE": "inactive"
  },
  {
    "MOLECULE": "COc1ccc2c(c1)C(=O)CCc1cc(OC)c(OC)c(OC)c1-2",
    "LABEL_VALUE": "active"
  },
  {
    "MOLECULE": "O=C(CC(=O)N1N=C(c2ccccc2)C(/N=N/c2ccc(C(=O)O)cc2)C1=O)Nc1ccc(F)cc1 (stereo unspecified)",
    "LABEL_VALUE": "inactive"
  }
]
